Molecular target: T1, APNPCP, CP of an uncharacterized NRP/PK gene cluster from Anabaena
T1 chain: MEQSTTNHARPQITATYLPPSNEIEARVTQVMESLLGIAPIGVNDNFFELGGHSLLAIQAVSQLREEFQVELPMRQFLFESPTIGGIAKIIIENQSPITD
experimental-endpoint: Km (µM)
Respond numerically; units are µM and should not be typed.

Below: 3 proteins and their reported Km.
Sfp, phosphopantetheinyl transferase from Bacillus subtilis (protein) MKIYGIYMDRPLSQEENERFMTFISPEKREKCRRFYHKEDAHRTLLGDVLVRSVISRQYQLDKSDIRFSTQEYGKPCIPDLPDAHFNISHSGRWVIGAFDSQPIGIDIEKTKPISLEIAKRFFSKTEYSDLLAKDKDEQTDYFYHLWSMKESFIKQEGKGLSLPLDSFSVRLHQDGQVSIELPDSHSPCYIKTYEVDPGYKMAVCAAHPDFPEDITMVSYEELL; 12
SPPT, Sfp-like phosphopantetheinyl transferase (PPTase) from Synechocystis sp. PCC6803 (protein) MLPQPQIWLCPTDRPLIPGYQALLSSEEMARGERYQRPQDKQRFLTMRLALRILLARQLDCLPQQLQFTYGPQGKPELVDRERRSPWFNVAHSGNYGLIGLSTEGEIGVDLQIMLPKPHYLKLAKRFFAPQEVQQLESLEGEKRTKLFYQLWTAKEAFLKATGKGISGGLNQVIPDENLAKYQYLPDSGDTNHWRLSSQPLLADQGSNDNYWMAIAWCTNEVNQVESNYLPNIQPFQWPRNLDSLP; 17
APPT, Sfp-like phosphopantetheinyl transferase (PPTase) from Anabaena sp. PCC7120 (protein) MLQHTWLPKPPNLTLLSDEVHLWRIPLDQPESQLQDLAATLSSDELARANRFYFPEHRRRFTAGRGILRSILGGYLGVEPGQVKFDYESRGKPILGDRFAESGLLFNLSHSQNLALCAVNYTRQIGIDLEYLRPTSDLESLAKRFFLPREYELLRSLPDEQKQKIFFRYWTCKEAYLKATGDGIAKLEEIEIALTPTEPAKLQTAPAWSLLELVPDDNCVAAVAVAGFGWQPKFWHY; 1.6

Next item in the queue.
Give its Km value. Item: MPPT, Sfp-like phosphopantetheinyl transferase (PPTase) from Microcystis aeruginosa NIES843 (protein) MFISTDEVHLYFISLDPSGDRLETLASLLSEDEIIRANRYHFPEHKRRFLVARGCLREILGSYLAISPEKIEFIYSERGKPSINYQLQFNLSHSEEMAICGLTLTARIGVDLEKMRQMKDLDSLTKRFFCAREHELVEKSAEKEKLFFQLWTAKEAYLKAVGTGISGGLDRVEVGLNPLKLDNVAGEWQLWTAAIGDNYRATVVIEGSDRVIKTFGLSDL
9.5

These data points were gathered from patent US20210087522.
